# target desc: Rap guanine nucleotide exchange factor 3 (Homo sapiens) (UniProt O95398)
# Sequence (O95398 whole entry, looked up): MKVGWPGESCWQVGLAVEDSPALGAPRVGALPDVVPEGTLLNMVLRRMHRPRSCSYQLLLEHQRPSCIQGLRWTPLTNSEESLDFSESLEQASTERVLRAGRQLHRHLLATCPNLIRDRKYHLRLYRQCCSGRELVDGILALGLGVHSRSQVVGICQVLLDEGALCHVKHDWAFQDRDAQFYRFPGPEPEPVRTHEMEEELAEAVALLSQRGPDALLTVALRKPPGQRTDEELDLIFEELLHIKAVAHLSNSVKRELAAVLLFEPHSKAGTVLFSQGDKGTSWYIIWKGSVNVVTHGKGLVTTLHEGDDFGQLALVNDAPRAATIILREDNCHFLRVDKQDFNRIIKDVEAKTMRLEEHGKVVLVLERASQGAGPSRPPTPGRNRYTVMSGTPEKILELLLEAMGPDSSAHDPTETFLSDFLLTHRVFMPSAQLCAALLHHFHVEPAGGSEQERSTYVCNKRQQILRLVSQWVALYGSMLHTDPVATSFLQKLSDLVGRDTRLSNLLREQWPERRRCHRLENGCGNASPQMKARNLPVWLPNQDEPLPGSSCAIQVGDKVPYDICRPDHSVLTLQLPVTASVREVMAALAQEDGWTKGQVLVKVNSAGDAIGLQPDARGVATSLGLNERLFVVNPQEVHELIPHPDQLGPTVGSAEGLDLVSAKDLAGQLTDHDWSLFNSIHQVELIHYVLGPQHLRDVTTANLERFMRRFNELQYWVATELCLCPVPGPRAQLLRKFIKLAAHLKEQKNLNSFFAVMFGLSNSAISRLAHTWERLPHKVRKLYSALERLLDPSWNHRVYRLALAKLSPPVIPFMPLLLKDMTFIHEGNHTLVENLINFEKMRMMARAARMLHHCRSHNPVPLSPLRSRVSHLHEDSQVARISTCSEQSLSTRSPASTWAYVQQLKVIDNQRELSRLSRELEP
# test details: Confirmatory qHTS for antagonist of cAMP-regulated guanine nucleotide exchange factor 3 (EPAC1) (AID 1645880); further: nearly all actives have a fitted effect of over 55% in size
# details: EPAC1 Rap1B-BODIPY-GDP exchange, fluorescence; series mostly up to 115 µM
Results filed as inconclusive are left out. Active and inactive are the calls of the source. The call rests on the fitted dose curve; in most records, active means well fitted inhibition curve with a large enough effect; inconclusive means small, poorly fitted or top-dose-only effect; inactive means no such curve, though single readings can be large or run the other way.
Classes used: T = active, F = inactive

- molecule: "COc1ccc(NC(=O)c2ccc(NC3=NC4CS(=O)(=O)CC4S3)cc2)cc1 (stereo not given)"
  assigned class: "F"
- molecule: "CCc1ccc(NC(=O)CSc2nnc(Cc3cccn3C)n2-c2ccc(OC)cc2)cc1"
  assigned class: "F"
- molecule: "COc1ccc(C2=CC(=O)C[C@H](COCc3ccccc3)N(C(=O)OC(C)(C)C)O2)cc1"
  assigned class: "F"
- molecule: "N#Cc1c(-c2ccccc2)nc(SCC(=O)Nc2ccc(OC(F)(F)Cl)cc2)[nH]c1=O"
  assigned class: "T"
- molecule: "CN(Cc1ccccc1)S(=O)(=O)c1ccc(Cl)c(C(=O)NCc2ccncc2)c1"
  assigned class: "F"
- molecule: "COc1ccccc1N1CCN(c2ccc3c(c2)S(=O)(=O)c2cccc(C(=O)NCC4CC4)c2C3=O)CC1"
  assigned class: "F"
- molecule: "Nn1cnnc1N/N=C/c1ccc(Cl)c([N+](=O)[O-])c1"
  assigned class: "F"
- molecule: "CC(C)N(C(=O)Nc1ccc2nsnc2c1)C(C)C"
  assigned class: "T"
- molecule: "Nc1c(C(=O)c2ccccc2)sc2nsc(SCCN3CCCC3)c12"
  assigned class: "F"
- molecule: "CCOC(=O)[C@@H](NC(=O)/C=C/[C@H]1O[C@@H](n2cc(C)c(=O)[nH]c2=O)C[C@@H]1O)C(C)C"
  assigned class: "F"

* * *

# target desc: Rap guanine nucleotide exchange factor 4 (Homo sapiens) (UniProt Q8WZA2)
# Sequence (Q8WZA2 whole entry, looked up): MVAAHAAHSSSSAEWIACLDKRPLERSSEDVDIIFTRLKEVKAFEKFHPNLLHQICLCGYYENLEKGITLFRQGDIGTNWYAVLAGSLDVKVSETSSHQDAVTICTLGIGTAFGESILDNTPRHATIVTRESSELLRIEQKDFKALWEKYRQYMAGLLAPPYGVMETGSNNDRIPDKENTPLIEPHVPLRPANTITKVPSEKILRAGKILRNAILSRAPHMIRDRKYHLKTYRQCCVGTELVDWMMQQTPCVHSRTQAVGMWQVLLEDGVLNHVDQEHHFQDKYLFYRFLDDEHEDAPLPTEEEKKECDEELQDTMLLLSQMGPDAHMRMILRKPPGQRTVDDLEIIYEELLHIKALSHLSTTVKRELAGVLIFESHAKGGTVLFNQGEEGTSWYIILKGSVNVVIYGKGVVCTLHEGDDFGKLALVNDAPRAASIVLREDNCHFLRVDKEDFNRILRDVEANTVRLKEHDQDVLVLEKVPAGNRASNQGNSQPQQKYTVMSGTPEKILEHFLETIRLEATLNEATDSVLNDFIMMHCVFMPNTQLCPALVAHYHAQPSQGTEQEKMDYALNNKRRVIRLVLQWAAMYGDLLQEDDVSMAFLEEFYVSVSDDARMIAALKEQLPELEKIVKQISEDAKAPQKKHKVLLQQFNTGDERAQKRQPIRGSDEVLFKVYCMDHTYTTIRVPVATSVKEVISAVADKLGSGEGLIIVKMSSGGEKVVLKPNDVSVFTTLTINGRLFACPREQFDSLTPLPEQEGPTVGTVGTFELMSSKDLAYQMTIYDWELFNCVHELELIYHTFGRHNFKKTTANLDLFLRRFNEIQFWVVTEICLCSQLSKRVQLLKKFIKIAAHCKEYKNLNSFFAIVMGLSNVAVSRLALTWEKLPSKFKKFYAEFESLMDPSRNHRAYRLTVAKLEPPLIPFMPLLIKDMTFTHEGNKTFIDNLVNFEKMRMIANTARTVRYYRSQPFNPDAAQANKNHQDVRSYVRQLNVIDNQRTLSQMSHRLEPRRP
# test details: Confirmatory qHTS for antagonist of cAMP-regulated guanine nucleotide exchange factor 4 (EPAC2) (AID 1645885); further: nearly all actives have a fitted effect of over 25% in size
# details: EPAC2 Rap1B-BODIPY-GDP exchange fluorescence, biochemical; series mostly up to 12.7 µM
Records with an inconclusive call do not appear. Activity calls are given as the source filed them. Calls follow the shape of the dose curve; as a rule, active = well fitted inhibition curve with a large enough effect; inconclusive = small, poorly fitted or top-dose-only effect; inactive = no such curve, though single readings can be large or run the other way.
Possible outcomes: y (active), n (inactive)

- compound: "O=S(=O)(c1cc(O)ccc1O)c1cccc2c(S(=O)(=O)c3cc(O)ccc3O)cccc12"
  target desc: "Rap guanine nucleotide exchange factor 4 (Homo sapiens) (UniProt Q8WZA2)"
  assigned class: "n"
- compound: "COC(=O)c1ccccc1NC1=C/C(=N\\S(=O)(=O)c2ccc(C(=O)O)cc2)c2ccccc2C1=O"
  target desc: "Rap guanine nucleotide exchange factor 4 (Homo sapiens) (UniProt Q8WZA2)"
  assigned class: "n"
- compound: "CN(C(=O)c1cc(-c2ccccc2)on1)C1CCCCC1"
  target desc: "Rap guanine nucleotide exchange factor 4 (Homo sapiens) (UniProt Q8WZA2)"
  assigned class: "n"
- compound: "Cc1ccc(N2C(=O)c3ccccc3C2C(=O)c2ccc(O)cc2O)cc1 (centres undefined)"
  target desc: "Rap guanine nucleotide exchange factor 4 (Homo sapiens) (UniProt Q8WZA2)"
  assigned class: "n"
- compound: "O=C1/C(=C/c2ccc(F)cc2)SC(=S)N1NS(=O)(=O)c1ccccc1"
  target desc: "Rap guanine nucleotide exchange factor 4 (Homo sapiens) (UniProt Q8WZA2)"
  assigned class: "n"
- compound: "Cc1cc(=O)n(C2CCS(=O)(=O)C2)[nH]1 (centres undefined)"
  target desc: "Rap guanine nucleotide exchange factor 4 (Homo sapiens) (UniProt Q8WZA2)"
  assigned class: "n"
- compound: "O=C(/C=C/c1ccc([N+](=O)[O-])cc1)Nc1cccc(C(=O)Nc2ccccc2C(=O)O)c1"
  target desc: "Rap guanine nucleotide exchange factor 4 (Homo sapiens) (UniProt Q8WZA2)"
  assigned class: "n"
- compound: "C=CCn1c(NC(=O)c2ccccc2Cl)c(C#N)c2nc3ccccc3nc21"
  target desc: "Rap guanine nucleotide exchange factor 4 (Homo sapiens) (UniProt Q8WZA2)"
  assigned class: "y"
- compound: "CCOC(=O)C1C(=O)C=C(c2ccccc2)CC1c1ccccc1 (centres undefined)"
  target desc: "Rap guanine nucleotide exchange factor 4 (Homo sapiens) (UniProt Q8WZA2)"
  assigned class: "n"
- compound: "COc1ccc(-n2nnnc2SCC(=O)c2ccc(O)c(O)c2)cc1"
  target desc: "Rap guanine nucleotide exchange factor 4 (Homo sapiens) (UniProt Q8WZA2)"
  assigned class: "n"
- compound: "COc1ccc(N(C)S(=O)(=O)c2cccc3nsnc23)cc1"
  target desc: "Rap guanine nucleotide exchange factor 4 (Homo sapiens) (UniProt Q8WZA2)"
  assigned class: "n"
- compound: "Cc1ccc(-n2nc3c(=O)n(CCCC(=O)NCc4ccccc4F)nc(C)c3c2C)cc1"
  target desc: "Rap guanine nucleotide exchange factor 4 (Homo sapiens) (UniProt Q8WZA2)"
  assigned class: "n"
- compound: "C#C[C@]1(OC(C)=O)CCC2C3CCC4=CC(=O)CC[C@@H]4C3CC[C@@]21C (some centres undefined)"
  target desc: "Rap guanine nucleotide exchange factor 4 (Homo sapiens) (UniProt Q8WZA2)"
  assigned class: "y"
- compound: "COc1cc(C=NNc2ccc(S(=O)(=O)Nc3ccccc3C(=O)O)cc2[N+](=O)[O-])ccc1O"
  target desc: "Rap guanine nucleotide exchange factor 4 (Homo sapiens) (UniProt Q8WZA2)"
  assigned class: "n"
- compound: "O=C1CC(Cc2ccccc2)C(=O)N1CCc1ccc2c(c1)OCO2 (centres undefined)"
  target desc: "Rap guanine nucleotide exchange factor 4 (Homo sapiens) (UniProt Q8WZA2)"
  assigned class: "n"
- compound: "CCn1c(CSc2nc3ccccc3s2)nnc1SCC(=O)c1ccc(O)c(O)c1"
  target desc: "Rap guanine nucleotide exchange factor 4 (Homo sapiens) (UniProt Q8WZA2)"
  assigned class: "n"
- compound: "Cc1cn([C@H]2C[C@H](O)[C@@H](CCC(=O)NCc3ccc4c(c3)OCO4)O2)c(=O)[nH]c1=O"
  target desc: "Rap guanine nucleotide exchange factor 4 (Homo sapiens) (UniProt Q8WZA2)"
  assigned class: "n"
- compound: "Cc1cc(N(C)C)cc(C)c1/C=C/c1ccnc2ccccc12"
  target desc: "Rap guanine nucleotide exchange factor 4 (Homo sapiens) (UniProt Q8WZA2)"
  assigned class: "y"
- compound: "CC1(C)CC(=O)c2sc(N3CCCCC3)nc2C1"
  target desc: "Rap guanine nucleotide exchange factor 4 (Homo sapiens) (UniProt Q8WZA2)"
  assigned class: "y"

* * *

# test details: Primary qHTS for inhibitors of nuclear receptor binding SET domain protein 2 (NSD2) in an isogenic RCH-ACV NSD2 p.E1099K mutant (9B) (AID 1645876); further: nearly all actives have a fitted effect of over 70% in size
# details: RCH-ACV (leukaemia line) NSD2 E1099K (9B) viability, CellTiter-Glo, 72 h; series mostly up to 44.9 µM
Inconclusive results are not listed. Activity calls are given as the source filed them. Calls come from the whole dose curve; as a rule, active = well fitted inhibition curve with a large enough effect; inconclusive = small, poorly fitted or top-dose-only effect; inactive = flat fitted curve, though single readings scatter.
Outcomes: label 1 (active), label 0 (inactive)

- structure string: "COc1cc2c(NC3CCN(C)CC3)nc(N3CCCN(C)CC3)nc2cc1OCCCN(C)C"
  assigned class: "label 0"
- structure string: "Cc1cc(Nc2ncnc3ccc(NC4=NC(C)(C)CO4)cc23)ccc1Oc1ccn2ncnc2c1"
  assigned class: "label 1"
- structure string: "CCC(=O)NC[C@H](Cc1ccc(OCCc2nc(-c3ccccc3)oc2C)cc1)N/C(C)=C\\C(=O)c1ccc(C(F)(F)F)cc1"
  assigned class: "label 0"
- structure string: "[2H]C([2H])([2H])C(O)([C@@H](C)/C=C/[C@@H](C)[C@H]1CC[C@H]2/C(=C/C=C3C[C@@H](O)C[C@H](O)C3)CCC[C@]12C)C([2H])([2H])[2H]"
  assigned class: "label 0"

* * *

# target desc: Rap guanine nucleotide exchange factor 4 (Homo sapiens)
# test details: Confirmatory qHTS for antagonist of cAMP-regulated guanine nucleotide exchange factor 4 (EPAC2) (AID 1645885); further: nearly all actives have a fitted effect of over 25% in size
# details: EPAC2 Rap1B-BODIPY-GDP exchange fluorescence, biochemical; series mostly up to 12.7 µM
Results filed as inconclusive are left out. Active and inactive are the calls of the source. The call rests on the fitted dose curve; in most records, active means well fitted inhibition curve with a large enough effect; inconclusive means small, poorly fitted or top-dose-only effect; inactive means no such curve, though single readings can be large or run the other way.
Outcomes: 1 (yes) for active, 0 (no) for inactive

- molecule: "O=C(CCNC(=O)c1ccc(Br)cc1)Nc1ccccc1N1CCOCC1"
  assigned class: "0 (no)"
- molecule: "C/C(=N\\NC(=O)C1CC1)c1cccs1"
  assigned class: "0 (no)"
- molecule: "CC1CN(C(=O)CCC(=O)NCc2ccccc2)c2ccccc2S1 (configuration not stated)"
  assigned class: "0 (no)"
- molecule: "O=CN1N=C(c2ccccc2)CC1c1ccc(Cl)cc1 (configuration not stated)"
  assigned class: "0 (no)"
- molecule: "CCOc1ccc(NC(=O)CN(C)C(=O)c2cc(C3CC3)nn2-c2ccccc2)cc1OCC"
  assigned class: "0 (no)"
- molecule: "CCO/C(C)=N/Oc1cc(OC)cc(OC)c1"
  assigned class: "1 (yes)"
- molecule: "CCCCN(CCCC)S(=O)(=O)c1ccc(C(=O)Nc2sc3c(c2C(N)=O)CCN(CC)C3)cc1"
  assigned class: "0 (no)"
- molecule: "Cc1cc(O)c(C(=O)/C=C/c2cccc([N+](=O)[O-])c2)c(=O)o1"
  assigned class: "0 (no)"
- molecule: "COC(=O)c1cc2sc(Cl)cc2n1Cc1c(C)cc(C)cc1C"
  assigned class: "0 (no)"
- molecule: "Cc1ccc(S(=O)(=O)N2[C@@H](CO)CO[C@H]2CC(=O)c2ccc(F)cc2)cc1"
  assigned class: "0 (no)"
- molecule: "CCOC(=O)C1=C(C)OC(N)=C(C#N)C1c1ccc(OC)c(CSc2ccccn2)c1 (configuration not stated)"
  assigned class: "0 (no)"
- molecule: "Cc1cc(=O)n2c(sc3ccccc32)c1C#N"
  assigned class: "0 (no)"
- molecule: "CCCc1nc2ccccc2c(=O)n1/N=C/c1ccccc1O"
  assigned class: "0 (no)"
- molecule: "O=C(Nc1cccc(Cl)c1)C1CCCN(C2=NS(=O)(=O)c3ccccc32)C1 (configuration not stated)"
  assigned class: "0 (no)"
- molecule: "COCCNC(=O)CSc1nc2cc3c(cc2c(=O)n1CCCCCC(=O)NCc1ccc(OC)cc1)OCO3"
  assigned class: "0 (no)"
- molecule: "CC[n+]1c(/C=C/C=C/N(C(C)=O)c2ccccc2)sc2cc(OC)ccc21"
  assigned class: "0 (no)"
- molecule: "C=CC(=C)CC(NC)c1ccccc1 (configuration not stated)"
  assigned class: "1 (yes)"
- molecule: "CC1CN(C(=O)COC(=O)COc2ccc(C#N)cc2)CC(C)O1 (configuration not stated)"
  assigned class: "0 (no)"
- molecule: "CC1(C)OCC(C2CC(c3ccccc3)NS(=O)(=O)O2)O1 (configuration not stated)"
  assigned class: "0 (no)"
- molecule: "CNC(=O)c1c(NC(=O)C2=COCCO2)sc(C)c1C"
  assigned class: "0 (no)"
- molecule: "O=C(O)c1ccc(S(=O)(=O)/N=C2\\C=C(Nc3ccccc3F)C(=O)c3ccccc32)cc1"
  assigned class: "0 (no)"
- molecule: "CC1CC(C)CN(c2nc3c(c(=O)n(C)c(=O)n3C)n2CCSc2ncccn2)C1 (configuration not stated)"
  assigned class: "0 (no)"
